Each recorded value in this set is attributed to the supplement of paper PMC10681739.

- TESTED_ON: ETS1 (UniProt P14921)
- Sequence: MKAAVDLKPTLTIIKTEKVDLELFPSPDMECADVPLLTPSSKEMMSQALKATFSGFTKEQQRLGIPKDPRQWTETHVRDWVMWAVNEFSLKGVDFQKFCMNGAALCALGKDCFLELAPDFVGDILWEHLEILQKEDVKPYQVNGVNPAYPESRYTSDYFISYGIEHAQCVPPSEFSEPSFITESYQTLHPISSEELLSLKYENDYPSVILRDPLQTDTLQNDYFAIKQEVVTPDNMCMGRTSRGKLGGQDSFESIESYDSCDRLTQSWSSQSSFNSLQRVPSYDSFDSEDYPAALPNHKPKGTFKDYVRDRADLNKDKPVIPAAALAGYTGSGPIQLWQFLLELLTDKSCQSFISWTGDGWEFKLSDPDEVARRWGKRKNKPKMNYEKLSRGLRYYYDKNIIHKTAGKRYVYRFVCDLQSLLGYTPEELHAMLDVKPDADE
- ASSAY_PROCEDURE: ETS1 binding intensity (PBM fluorescence) in presence of RUNX1, normalised to ETS1-only experiment (arbitrary fluorescence units); higher = stronger binding
- MEASUREMENT_CONTEXT: ETS1 concentration 1 nM; RUNX1 concentration 25 nM
The label depends only on ETS1 binding intensity: 1 if it is at least 1000, -1 if it is smaller.

# example entries with known answers
[[record]]
monomer_sequence = "TCTGGCTTCCTGTCTTAATAGGGCTTTGTGGTGTGC"
group_label = 1

[[record]]
monomer_sequence = "GTTGTCTTCTTCCTGAGTAAACCGCAGTGCAGAGAA"
group_label = 1

[[record]]
monomer_sequence = "TCCTCCCACGGGAAGTGCCGTAGGACCGCAGCCCGA"
group_label = 1


query: Given the entry AGCTTTCCTTTTCCGGTTGCGGCGCCGCGCGTTGAT , answer whether its ETS1 binding intensity meets or surpasses 1000.
result: 1

query: Item: CCGATTTCCCCGGACGTGGTGAGACCGCGCTTCGTC
result: -1

query: Item: AGAACAGGATGTTCTGAGTACAGCATGAACCTCAAA
result: 1

query: Item: TGATGCACTTCCTGAGGGCCCGCATGTGGTAAACAC
result: -1

query: Item: GCACTCATTTCCTGTCCCCTGTGGTTTAAAGGTTTT
result: 1

query: Item: TGCCGGGCCCCGGATGTCACCGCAGCCGCCATCTTA
result: 1

query: Item: CATACAGGATGCTGGGGTATGTAAAACAAACCACGG
result: -1

query: Item: TGGAAGGCCGGAAAAGGTTTACCACCACACTCCGGT
result: 1

query: Item: GGTCCCCCCGGTTCCGGCGCGGTTGAGGCCTTCGGT
result: -1
